tested.on: HLA-A*69:01
measurement.description: IEDB peptide-MHC binding, purified MHC/direct/fluorescence; filed as Kd, often an IC50 or EC50 that approximates it; bounds were set here for any values at or beyond the usual limits of such assays
run.conditions: source organism: Neisseria gonorrhoeae

| query.sequence | Kd |
| --- | --- |
| GSDKQVVGQ | ≥ 20 µM |

---

// reported Kd for each item listed
tested.on: HLA-A*68:01
measurement.description: IEDB peptide-MHC binding, purified MHC/competitive/radioactivity; filed as Kd, often an IC50 or EC50 that approximates it; bounds were set here for any values at or beyond the usual limits of such assays
run.conditions: source organism: Dengue virus 2 Jamaica/1409/1983

| query.sequence | tested.on | units.of.measure | Kd |
| --- | --- | --- | --- |
| ETAECPNTNR | HLA-A*68:01 | nM | 13.9 |
| PTFAAGLLLR | HLA-A*68:01 | nM | 837 |

---

tested.on: HLA-A*03:01
measurement.description: IEDB peptide-MHC binding, purified MHC/competitive/radioactivity; filed as Kd, often an IC50 or EC50 that approximates it; bounds were set here for any values at or beyond the usual limits of such assays
run.conditions: source organism: Dengue virus 1 Brazil/97-11/1997
pKd: −log10 of the molar value.
experimental.endpoint: pKd

| query.sequence | value.reported |
| --- | --- |
| ATCVYNMMGK | 8.72 |

---

tested.on: HLA-A*02:01
measurement.description: IEDB peptide-MHC binding, purified MHC/competitive/fluorescence; filed as Kd, often an IC50 or EC50 that approximates it; bounds were set here for any values at or beyond the usual limits of such assays
run.conditions: source organism: Cryptosporidium parvum Iowa II
experimental.endpoint: Kd

| query.sequence | experimental.endpoint | value.reported |
| --- | --- | --- |
| MSQMPPHPY | Kd | ≥ 20 µM |

---

tested.on: HLA-A*02:03
measurement.description: IEDB peptide-MHC binding, purified MHC/competitive/radioactivity; filed as Kd, often an IC50 or EC50 that approximates it; bounds were set here for any values at or beyond the usual limits of such assays
run.conditions: source organism: Lymphocytic choriomeningitis virus (strain WE)
experimental.endpoint: Kd (nM)

| query.sequence | tested.on | value.reported |
| --- | --- | --- |
| FSTSAYLISI | HLA-A*02:03 | 13.5 |

---

tested.on: HLA-B*58:01
measurement.description: IEDB peptide-MHC binding, purified MHC/competitive/fluorescence; filed as Kd, often an IC50 or EC50 that approximates it; bounds were set here for any values at or beyond the usual limits of such assays
run.conditions: source organism: Yersinia pestis Nepal516

| query.sequence | Kd |
| --- | --- |
| RSSKLVMRY | 18.3 nM |

---

tested.on: HLA-B*51:01
measurement.description: IEDB peptide-MHC binding, purified MHC/competitive/radioactivity; filed as Kd, often an IC50 or EC50 that approximates it; bounds were set here for any values at or beyond the usual limits of such assays
run.conditions: source organism: Dengue virus 1 Brazil/97-11/1997
pKd: −log10 of the molar value.
Everything with pKd lower than 6 is Not satisfied; everything else, including exactly 6, is Satisfied.

| query.sequence | group |
| --- | --- |
| EPHWIAASI | Satisfied |
| GPLIAGGMLI | Not satisfied |
| LPVWLSYKV | Satisfied |
| MPIRYQTTA | Not satisfied |
| FDLCEGTTVV | Not satisfied |

---

tested.on: HLA-A*69:01
measurement.description: IEDB peptide-MHC binding, purified MHC/direct/fluorescence; filed as Kd, often an IC50 or EC50 that approximates it; bounds were set here for any values at or beyond the usual limits of such assays
run.conditions: source organism: Influenza A virus (A/Duck/Shantou/2088/01(H9N2))
pKd: −log10 of the molar value.
experimental.endpoint: pKd

| query.sequence | tested.on | experimental.endpoint | value.reported |
| --- | --- | --- | --- |
| EEMATKADY | HLA-A*69:01 | pKd | ≤ 4.70 |

---

tested.on: HLA-A*02:02
measurement.description: IEDB peptide-MHC binding, purified MHC/competitive/radioactivity; filed as Kd, often an IC50 or EC50 that approximates it; bounds were set here for any values at or beyond the usual limits of such assays
run.conditions: source organism: Lassa virus Josiah

| query.sequence | Kd [nM] |
| --- | --- |
| GLYKQPGVPV | 1400 |

---

tested.on: HLA-A*02:19
measurement.description: IEDB peptide-MHC binding, purified MHC/direct/fluorescence; filed as Kd, often an IC50 or EC50 that approximates it; bounds were set here for any values at or beyond the usual limits of such assays
run.conditions: source organism: Brucella suis 1330
experimental.endpoint: Kd

| query.sequence | value.reported |
| --- | --- |
| MRDGGSATV | ≥ 20 µM |

---

tested.on: HLA-A*69:01
measurement.description: IEDB peptide-MHC binding, purified MHC/direct/fluorescence; filed as Kd, often an IC50 or EC50 that approximates it; bounds were set here for any values at or beyond the usual limits of such assays
run.conditions: source organism: Pseudomonas putida

| query.sequence | tested.on | Kd (nM) |
| --- | --- | --- |
| HTAEIQQFF | HLA-A*69:01 | 32.8 |

---

tested.on: HLA-B*15:09
measurement.description: IEDB peptide-MHC binding, purified MHC/direct/fluorescence; filed as Kd, often an IC50 or EC50 that approximates it; bounds were set here for any values at or beyond the usual limits of such assays
run.conditions: source organism: Variola virus
experimental.endpoint: Kd (µM)

| query.sequence | experimental.endpoint | value.reported |
| --- | --- | --- |
| YHRFGLYRL | Kd | 2.43 |

---

tested.on: HLA-B*58:01
measurement.description: IEDB peptide-MHC binding, purified MHC/direct/fluorescence; filed as Kd, often an IC50 or EC50 that approximates it; bounds were set here for any values at or beyond the usual limits of such assays
run.conditions: source organism: Aggregatibacter actinomycetemcomitans
pKd: −log10 of the molar value.
experimental.endpoint: pKd

| query.sequence | value.reported |
| --- | --- |
| TTRAWFDKK | ≤ 4.70 |

---

tested.on: HLA-B*15:02
measurement.description: IEDB peptide-MHC binding, purified MHC/direct/fluorescence; filed as Kd, often an IC50 or EC50 that approximates it; bounds were set here for any values at or beyond the usual limits of such assays
run.conditions: source organism: Hantaan virus Q32
pKd: −log10 of the molar value.

| query.sequence | pKd |
| --- | --- |
| FQHERLGQF | 7.54 |

---

tested.on: HLA-A*01:01
measurement.description: IEDB peptide-MHC binding, purified MHC/direct/fluorescence; filed as Kd, often an IC50 or EC50 that approximates it; bounds were set here for any values at or beyond the usual limits of such assays
run.conditions: source organism: Influenza A virus (A/Hong Kong/507/97(H5N1))
pKd: −log10 of the molar value.

| query.sequence | tested.on | pKd |
| --- | --- | --- |
| LAKSVFNSL | HLA-A*01:01 | ≤ 4.70 |

---

tested.on: HLA-A*03:01
measurement.description: IEDB peptide-MHC binding, purified MHC/direct/fluorescence; filed as Kd, often an IC50 or EC50 that approximates it; bounds were set here for any values at or beyond the usual limits of such assays
run.conditions: source organism: Oran virus
pKd: −log10 of the molar value.
experimental.endpoint: pKd

| query.sequence | value.reported |
| --- | --- |
| KPKALSEAF | ≤ 4.70 |

---

tested.on: HLA-A*68:01
measurement.description: IEDB peptide-MHC binding, purified MHC/competitive/radioactivity; filed as Kd, often an IC50 or EC50 that approximates it; bounds were set here for any values at or beyond the usual limits of such assays
run.conditions: source organism: Dengue virus 2 Peru/IQT2913/1996

| query.sequence | Kd, nM |
| --- | --- |
| TTFITPMLR | 6.76 |

---

tested.on: HLA-B*39:01
measurement.description: IEDB peptide-MHC binding, purified MHC/competitive/fluorescence; filed as Kd, often an IC50 or EC50 that approximates it; bounds were set here for any values at or beyond the usual limits of such assays
run.conditions: source organism: Escherichia coli O157:H7 str. EDL933
experimental.endpoint: Kd (nM)

| query.sequence | value.reported |
| --- | --- |
| MQRSGMLSL | 61 |

---

tested.on: HLA-A*26:01
measurement.description: IEDB peptide-MHC binding, purified MHC/direct/fluorescence; filed as Kd, often an IC50 or EC50 that approximates it; bounds were set here for any values at or beyond the usual limits of such assays
run.conditions: source organism: Aggregatibacter actinomycetemcomitans
experimental.endpoint: Kd

| query.sequence | value.reported |
| --- | --- |
| TTRAWFDKK | ≥ 20 µM |
